Numbers sourced from the RNAGym collection of RNA variant scans (doi:10.1126/science.aae0568).

B1: tRNA (parent)
chain: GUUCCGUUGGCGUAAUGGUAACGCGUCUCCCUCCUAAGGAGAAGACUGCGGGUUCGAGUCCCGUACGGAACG

- Variants of: B1
- assay-info: yeast fitness relative to wild type (ratio to wild type); higher = fitter; tRNA-Arg(CCU), competitive growth, 37 C, YPD
Variants at the floor of the assay were thinned out.
measured-quantity: yeast fitness
Output spec: single numeric token, no unit.

Look over these answered cases.
- variant-designation: "A42C G48A G50A C61G"
  yeast fitness: 0.553
- variant-designation: "C5U U32C"
  yeast fitness: 0.892
- variant-designation: "G10C A45G"
  yeast fitness: 0.716

Prompt line: Could you share which yeast fitness value was measured for A45C C46U ?
Response line: 1.02

Prompt line: Entry U13C A21G C31G A45G please
Response line: 0.619

Prompt line: Entry A21U C55G please
Response line: 0.527

Prompt line: Entry G10A C29A A42U U64C please
Response line: 0.529

Prompt line: Entry U28A A69U please
Response line: 0.749

Prompt line: Entry C4G A14G C31A please
Response line: 0.528

Prompt line: Entry C27G A70U please
Response line: 0.74

Prompt line: Entry G56A C60G please
Response line: 0.681

Prompt line: Entry U7A U16C A21U U26A please
Response line: 0.537

Prompt line: Entry G12A C60U please
Response line: 0.777

Prompt line: Entry A15C A43U G67A please
Response line: 0.535

Prompt line: Entry U3C A20U C30U A37G please
Response line: 0.633

Prompt line: Entry C29U C34U A57C U64C please
Response line: 0.549

Prompt line: Entry G12A C24A A36U A69C please
Response line: 0.599

Prompt line: Entry U19G U64C please
Response line: 0.841

Prompt line: Entry C46U C60U A65C please
Response line: 0.589

Prompt line: Entry U2C U3A C24A C27U G56C C66U please
Response line: 0.562

Prompt line: Entry C24A A36C G52C C66U please
Response line: 0.761

Prompt line: Entry C27U C34U A69U please
Response line: 0.528
